- target.or.system: Voltage-gated potassium channel subunit beta-2 (Rattus norvegicus) (UniProt P62483)
- Sequence (P62483 whole entry, looked up): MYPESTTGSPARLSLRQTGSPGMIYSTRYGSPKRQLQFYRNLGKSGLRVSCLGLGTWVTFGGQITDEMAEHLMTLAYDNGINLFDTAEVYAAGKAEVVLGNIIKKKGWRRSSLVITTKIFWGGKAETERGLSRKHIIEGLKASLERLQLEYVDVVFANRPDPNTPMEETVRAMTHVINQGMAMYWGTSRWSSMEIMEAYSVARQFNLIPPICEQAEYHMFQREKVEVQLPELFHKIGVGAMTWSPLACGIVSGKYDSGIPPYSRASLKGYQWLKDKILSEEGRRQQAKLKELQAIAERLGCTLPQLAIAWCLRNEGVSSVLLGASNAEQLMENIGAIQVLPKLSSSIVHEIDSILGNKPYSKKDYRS
- method.description: enhancers of rat Kvbeta2 NADPH turnover – biochemical, NADPH fluorescence, primary screen (AID 623);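 further: fluorescence intensity change per second fitted from 20 to 320 s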
- stated.conditions: Recombinant KvBeta, NADPH fluorescence decrease slope, 10 min; at 10 µM
Activity calls are given as the source filed them.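 How the source made its calls: active means NADPH fluorescence slope more negative than the mean of all samples by about 3 SD, 99.7% confidence; inactive means the rest.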
Hello, when you answer, please use one of the following outcomes: active, inactive

Solved cases (5 shown):
1. CCn1cc(C(=O)Nc2cc3c(cc2NC(C)=O)OCCO3)c(=O)c2ccc(C)nc21 : active
2. Cc1ccc(C)c(Cn2c(=O)n(CCC(=O)NCc3ccco3)c(=O)c3sccc32)c1 : inactive
3. CCCSC1=C(C#N)C(c2ccccc2OCC)CC(=O)N1 (stereo unspecified) : inactive
4. Cc1cc(C)c2oc(=O)cc(CN3CCOCC3)c2c1 : inactive
5. CN(C(=O)c1ccccn1)c1nnc(-c2ccncc2)s1 : inactive

stdin: Please state the recorded outcome for this compound: COC(=O)c1c(NC(=O)C2CC=CCC2C(=O)O)sc(C(N)=O)c1C (stereo unspecified)
stdout: inactive

stdin: Please state the recorded outcome for this compound: `COC(=O)c1sccc1NC(=O)c1ccncc1`
stdout: inactive

stdin: Please state the recorded outcome for this compound: CCC(C)(NC(=O)c1ccc(=O)[nH]c1)C(=O)NC1CCCC1 (stereo unspecified)
stdout: inactive

stdin: Please state the recorded outcome for this compound: CCOc1ccc(N2CC(C(=O)Nc3ccc(F)cc3F)CC2=O)cc1 (stereo unspecified)
stdout: inactive

stdin: Please state the recorded outcome for this compound: `CCCNS(=O)(=O)c1ccc(OCC(=O)Nc2ccccc2F)cc1`
stdout: inactive

stdin: Please state the recorded outcome for this compound: `Cc1cccc(N2CCN(C(=O)c3ccc(NS(=O)(=O)c4c(C)noc4C)cc3)CC2)c1C`
stdout: inactive

stdin: Please state the recorded outcome for this compound: `CCOC(=O)CSc1nnc(CNC(=O)c2cccs2)n1-c1cc(OC)ccc1OC`
stdout: inactive

stdin: Please state the recorded outcome for this compound: C=CCNc1nc(C2(C)CC3(CC(C)(C)OC3=O)C(=O)O2)cs1 (stereo unspecified)
stdout: inactive

stdin: Please state the recorded outcome for this compound: CC(C(=O)N1CC2(C)CC1CC(C)(C)C2)N1C(=O)c2ccccc2C1=O (stereo unspecified)
stdout: inactive

stdin: Please state the recorded outcome for this compound: `Cn1c(=O)[nH]c2cc3ccccc3cc21`
stdout: inactive

stdin: Please state the recorded outcome for this compound: `Cc1ccccc1CSCC(=O)c1c(N)n(C)c(=O)n(C)c1=O`
stdout: inactive

stdin: Please state the recorded outcome for this compound: `COc1ccc(S(=O)(=O)N2CCN(C3CCCCCCC3)CC2)cc1`
stdout: inactive
